measurementDescription: 7-day mouse toxicology study: toxicokinetics (plasma, brain, CSF), 30 mg/kg/day PO
Type: in vivo, male C57BL/6 mice
experimentalParameters: male, C57BL/6, mouse, brain, po, 30 mg/kg, Day 7, Brain, 30 mg/kg PO; read-out: Terminal t1/2 (converted)
observable: half-life
Remember to put the unit after the number in your answer.

q: State the recorded half-life for this entry: Cc1cccnc1[C@@H]1CCC[C@H](c2nc3cccc(N4CCN(C)CC4)c3[nH]2)N1C (racemic) [I-3]
a: 34.4 h

====

experimentalSystem: CXCR-4 transfected U87 cell line (U87.CXCR4) (Homo sapiens, UniProt P61073)
Sequence (P61073 whole entry): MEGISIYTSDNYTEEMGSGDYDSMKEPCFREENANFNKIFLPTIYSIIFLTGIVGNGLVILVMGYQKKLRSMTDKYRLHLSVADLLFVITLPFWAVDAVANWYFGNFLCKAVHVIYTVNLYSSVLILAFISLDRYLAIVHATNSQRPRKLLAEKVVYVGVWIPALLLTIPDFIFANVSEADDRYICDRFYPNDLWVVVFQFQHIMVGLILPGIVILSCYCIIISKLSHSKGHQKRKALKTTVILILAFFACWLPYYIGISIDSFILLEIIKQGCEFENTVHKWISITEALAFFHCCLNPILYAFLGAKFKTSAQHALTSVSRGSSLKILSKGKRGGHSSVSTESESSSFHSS
measurementDescription: Intracellular CXCL-12-induced calcium mobilization assay (FLIPR)
experimentalParameters: U87.CXCR4 cells; CXCL-12 25-50 ng/mL; compound added 15 min before; read-out: IC50 CXCL-12 Ca^2+ flux U87.CXCR4+
observable: IC50

q: State the recorded IC50 for this entry: CN(C)CCCn1ccnc1[C@H]1CCC[C@@H](c2ncccc2Cl)N1C
a: 100 to 1000 nM

q: State the recorded IC50 for this entry: Cc1cccnc1[C@@H]1CCC[C@H](c2nc3ccccc3n2C2CCN(C)CC2)N1C
a: 0.01 to 100 nM

q: State the recorded IC50 for this entry: CN1CCN(c2cccc3nc([C@H]4CCC[C@@H](c5nccc6c5OCCO6)N4C)[nH]c23)CC1
a: 100 to 1000 nM

q: State the recorded IC50 for this entry: Cc1cccnc1[C@@H]1CCC[C@H](c2nc3ccccc3n2CCCCN2CCC(F)(F)CC2)N1C
a: ≥ 1000 nM

q: State the recorded IC50 for this entry: Cc1cccnc1[C@@H]1CCC[C@H](c2nccn2C2CCN(C)CC2)N1
a: ≥ 1000 nM

====

measurementDescription: 7-day mouse toxicology study: toxicokinetics (plasma, brain, CSF), 30 mg/kg/day PO
Assay type: in vivo, male C57BL/6 mice
experimentalParameters: male, C57BL/6, mouse, CSF, po, 30 mg/kg, Day 1, CSF, 30 mg/kg PO
Procedure: The PO dosing solutions were prepared in 50 mM citrate buffer (pH 4.0) at 3 mg/mL. The blood collection was performed as follows: the animal was anesthetized under isoflurane. Approximately 500 μL blood/time point was collected into K2EDTA tube via cardiac puncture for terminal bleeding. ˜200 μL blood samples were put on ice and centrifuged to obtain plasma sample (2000 g, 5 min under 4° C.) within 15 minutes of collection. ˜300 blood samples were used for hematology assay. […]
observable: Tmax (h)
Give your result in h as a bare value.

q: State the recorded Tmax for this entry: Cc1cccnc1[C@@H]1CCC[C@H](c2nc3cccc(N4CCN(C)CC4)c3[nH]2)N1C (racemic) [I-3]
a: 8

====

experimentalSystem: Jurkat cells expressing CXCR4 (Homo sapiens)
Construct: endogenous in cells
measurementDescription: Chemokine (CXCL12-AF647) binding inhibition assay
experimentalParameters: CXCL12-AF647 25 ng/mL, read-out: IC50 CXCL-12 binding Jurkat
observable: IC50

q: Recall the recorded IC50 for Cc1cccnc1[C@@H]1CCC[C@H](c2nc3ccccc3n2CCCN(C)C)N1 with Jurkat cells expressing CXCR4 (Homo sapiens) and state it.
a: 0.01 to 100 nM

q: Recall the recorded IC50 for COc1cccnc1[C@@H]1CCC[C@H](c2nc3cccc(N4CCN(C)CC4)c3[nH]2)N1 with Jurkat cells expressing CXCR4 (Homo sapiens) and state it.
a: 0.01 to 100 nM

q: Recall the recorded IC50 for Cc1cccnc1[C@@H]1CCC[C@H](c2nc3ccccc3n2CCCCN(C)C)N1C with Jurkat cells expressing CXCR4 (Homo sapiens) and state it.
a: 0.01 to 100 nM

q: Recall the recorded IC50 for Cc1cccc(F)c1[C@@H]1CCC[C@H](c2nc3cccc(N4CCN(C)CC4)c3[nH]2)N1C with Jurkat cells expressing CXCR4 (Homo sapiens) and state it.
a: ≥ 1000 nM

q: Recall the recorded IC50 for Cc1cccnc1[C@@H]1CCC[C@H](c2nc3ccccc3n2CCCCN2CCOCC2)N1C with Jurkat cells expressing CXCR4 (Homo sapiens) and state it.
a: 100 to 1000 nM

q: Recall the recorded IC50 for Cc1cccnc1[C@@H]1CCC[C@H](c2nc3cccc(N4CCNCC4)c3[nH]2)N1C with Jurkat cells expressing CXCR4 (Homo sapiens) and state it.
a: 0.01 to 100 nM

q: Recall the recorded IC50 for CO[C@@H]1C[C@H](c2nc3cccc(N4CCN(C)CC4)c3[nH]2)N(C)[C@H](c2ncccc2C)C1 with Jurkat cells expressing CXCR4 (Homo sapiens) and state it.
a: 0.01 to 100 nM

q: Recall the recorded IC50 for Cc1cccnc1[C@@H]1CCC[C@H](c2nc3ccccc3n2CCCN(C)C)N1C with Jurkat cells expressing CXCR4 (Homo sapiens) and state it.
a: 0.01 to 100 nM

q: Recall the recorded IC50 for Cc1cccnc1[C@@H]1CCC[C@H](c2nccn2C2CCN(C)CC2)N1C with Jurkat cells expressing CXCR4 (Homo sapiens) and state it.
a: 0.01 to 100 nM

q: Recall the recorded IC50 for CO[C@H]1C[C@H](c2nc3cccc(N4CCN(C)CC4)c3[nH]2)N(C)[C@H](c2ncccc2C)C1 with Jurkat cells expressing CXCR4 (Homo sapiens) and state it.
a: 0.01 to 100 nM

q: Recall the recorded IC50 for Cc1cccnc1[C@@H]1CCC[C@H](c2nc3cccc(N4CCN(C)C(C)C4)c3[nH]2)N1C (some centres unmarked) with Jurkat cells expressing CXCR4 (Homo sapiens) and state it.
a: 0.01 to 100 nM

q: Recall the recorded IC50 for Cc1cccnc1[C@@H]1CCC[C@H](c2nc3ccccc3[nH]2)N1CCc1ccccn1 with Jurkat cells expressing CXCR4 (Homo sapiens) and state it.
a: 0.01 to 100 nM

q: Recall the recorded IC50 for Cc1cccnc1[C@@H]1CCC[C@H](c2nc3cccc(N4CCN5CCCC5C4)c3[nH]2)N1C (some centres unmarked) with Jurkat cells expressing CXCR4 (Homo sapiens) and state it.
a: 0.01 to 100 nM

q: Recall the recorded IC50 for Cc1cccnc1[C@@H]1CCC[C@H](c2nc3ccccc3[nH]2)N1Cc1ccccc1-n1cccn1 with Jurkat cells expressing CXCR4 (Homo sapiens) and state it.
a: 0.01 to 100 nM

q: Recall the recorded IC50 for Cc1c(Cl)ccnc1[C@@H]1CCC[C@H](c2nc3cccc(N4CCN(C)CC4)c3[nH]2)N1C with Jurkat cells expressing CXCR4 (Homo sapiens) and state it.
a: 0.01 to 100 nM

q: Recall the recorded IC50 for CN1CCN(c2cccc3nc([C@H]4CCC[C@@H](c5ccccn5)N4C)[nH]c23)CC1 with Jurkat cells expressing CXCR4 (Homo sapiens) and state it.
a: 0.01 to 100 nM

q: Recall the recorded IC50 for Cc1cccnc1[C@@H]1CCC[C@H](c2nccn2Cc2ccccc2-n2cccn2)N1 with Jurkat cells expressing CXCR4 (Homo sapiens) and state it.
a: ≥ 1000 nM
